Target: Acetylcholinesterase (Electrophorus electricus, UniProt O42275)
Sequence (O42275 whole entry): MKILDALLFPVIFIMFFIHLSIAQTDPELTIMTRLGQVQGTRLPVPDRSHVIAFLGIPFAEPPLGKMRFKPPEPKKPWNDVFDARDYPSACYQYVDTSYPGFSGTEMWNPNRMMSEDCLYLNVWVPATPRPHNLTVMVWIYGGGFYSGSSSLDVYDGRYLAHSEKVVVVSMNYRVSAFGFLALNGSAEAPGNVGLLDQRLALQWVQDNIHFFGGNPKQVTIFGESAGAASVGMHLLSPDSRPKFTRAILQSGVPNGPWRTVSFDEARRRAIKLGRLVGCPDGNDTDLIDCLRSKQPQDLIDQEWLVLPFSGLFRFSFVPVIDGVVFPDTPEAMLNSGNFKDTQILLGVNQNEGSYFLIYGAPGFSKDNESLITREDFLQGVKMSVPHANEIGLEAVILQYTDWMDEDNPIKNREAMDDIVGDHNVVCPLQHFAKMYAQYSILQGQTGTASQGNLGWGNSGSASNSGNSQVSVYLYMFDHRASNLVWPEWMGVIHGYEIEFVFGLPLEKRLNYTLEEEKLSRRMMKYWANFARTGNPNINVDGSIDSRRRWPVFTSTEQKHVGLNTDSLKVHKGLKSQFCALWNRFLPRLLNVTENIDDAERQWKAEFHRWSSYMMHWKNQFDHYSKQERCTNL
Here the recorded IC50 is given for each entry.
Dear colleague, please return just the value in µM, with no unit written.

Please review the following examples before continuing.
COc1cc(CNCCCCCCNCc2cc(OC)c3c(c2)OCO3)cc2c1OCO2 : 9.78
COc1cc(CNCCCCCNCc2cc(OC)c3c(c2)OCO3)cc2c1OCO2 : 13.2
COc1cc(CNCCCCCCCNCc2cc(OC)c3c(c2)OCO3)cc2c1OCO2 : 4.24

Exercise: API: value(readout= IC50, system= Acetylcholinesterase (Electrophorus electricus, UniProt O42275), query= COc1cc(CNCCCCCCCCCNCc2cc(OC)c3c(c2)OCO3)cc2c1OCO2 )
Key: 2.76

Exercise: What measured IC50 is associated with COc1cc(CNCCCCNCc2cc(OC)c3c(c2)OCO3)cc2c1OCO2 on Acetylcholinesterase (Electrophorus electricus, UniProt O42275)?
Key: 120

Exercise: // map COc1cc(CNCCCCCCCCNCc2cc(OC)c3c(c2)OCO3)cc2c1OCO2 to recorded IC50 (system: Acetylcholinesterase (Electrophorus electricus, UniProt O42275))
Key: 2.79
